# Tested on: M14 melanoma
# Assay name: NCI tumour cell line growth inhibition, 48 h; in the data active = GI50 below about 0.43 µM; inactive = the rest
Answer with one of the outcomes given here: true for active, false for inactive

Record excerpt, results attached:
{"columns": ["Compound", "Study system", "Class name"],
 "data": [
  ["O=C(Nc1ccc(Cl)c(Cl)c1)NS(=O)(=O)c1cnccc1Oc1ccc(F)cc1", "M14 melanoma", "false"],
  ["COC(=O)C1(C)Cc2cc(OC(C)=O)c(OC(C)=O)cc2N1 (stereo not given)", "M14 melanoma", "false"],
  ["Cc1cc(I)cc(CN(C)CCCN2CCCC2)c1O", "M14 melanoma", "false"],
  ["COc1ccc2c(c1)/C(=C/c1cc(OC)c(OC)c(OC)c1)C(=O)N2", "M14 melanoma", "true"]
]}

q: Given CCNC(=O)c1noc(-c2cc(C(C)C)c(O)cc2O)c1-c1ccc(CN2CCOCC2)cc1 , state the outcome it received in this test.
a: true

====

# Tested on: SW-620 colon
# Assay name: NCI tumour cell line growth inhibition, 48 h
Quantity kind: TGI

{"columns": ["Compound", "TGI"],
 "data": [
  ["C=C1C[C@@H]2CC[C@@]34C[C@H]5O[C@H]6[C@@H](O3)[C@H]3O[C@H](CC[C@@H]3O[C@H]6[C@@H]5O4)CC(=O)C[C@@H]3[C@@H](OC)[C@@H](C[C@H](O)CN)O[C@H]3C[C@H]3O[C@@H](CC[C@@H]1O2)C[C@@H](C)C3=C", "> 100 µM"],
  ["CC(C)OC(=O)OCSc1ccccc1N=Cc1cccc([N+](=O)[O-])c1", "> 10 µM"],
  ["Cc1ccccc1NC(=O)C1C(=O)N(c2ccccc2C)C(=O)/C1=N\\NC(N)=S (stereo not drawn)", "> 100 µM"]
]}

q: I'm curious: which TGI was measured for COc1ccc(CN2CCC/C=C/CC(Cl)(Cl)C2=O)cc1 tested on SW-620 colon?
a: > 100 µM

q: Input COC1CC(OC2CCC3(C)C(=CCC4C3C(OC(C)=O)C(OC(=O)CC(C)C)C3(C)C(C(C)=O)CCC43O)C2)OC(C)C1OC1CC(OC)C(OC2CC(OC)C(OC3OC(C)C(OC4OC(CO)C(O)C(O)C4O)C(OC)C3O)C(C)O2)C(C)O1 (stereo not drawn)
a: > 75 µM

q: Input COC(=O)C(/C(=N\O)C(=O)Nc1cccc(Cl)c1C)c1cnc2ccccc2n1 (stereo not drawn)
a: > 100 µM

q: Input COC(=O)[C@H](Cc1ccccc1)NC(=O)CCCCCCC(=O)NO
a: > 100 µM

q: Input Cc1c2ccccc2cc2ccc3oc([N+](=O)[O-])cc3c12
a: > 100 µM

q: Input COC(=O)c1cc(C#N)[nH]c1-c1cc(Br)cs1
a: 40.2 µM

q: Input CCC(C(=O)C(=O)OC)P1(=O)OC(C)(C)CN1C(C)(C)C (stereo not drawn)
a: > 100 µM

q: Input COc1ccc(-c2cc(-c3ccccc3)[nH]c(=S)c2C#N)cc1
a: > 100 µM

====

# System: HOP-92 NSCLC
# Assay name: NCI tumour cell line growth inhibition, 48 h; in the data active means GI50 below about 0.43 µM; inactive means the rest
Answer with one of the outcomes given here: yes (1) = active, no (0) = inactive

Record excerpt, results attached:
{"columns": ["Compound", "Study system", "Class name"],
 "data": [
  ["O=c1oc2ccc(I)cc2c(=O)n1-c1ccc(Cl)cc1F", "HOP-92 NSCLC", "yes (1)"],
  ["CN(C)C(=O)O[C@H]1CN[C@H](C#Cc2cc3ncnc(Nc4ccc(OCc5cccc(F)c5)c(Cl)c4)c3s2)C1", "HOP-92 NSCLC", "no (0)"],
  ["O=C(O)[C@@H](Cc1ccc2ccccc2c1)NC(=O)n1c2ccccc2c2ccccc21", "HOP-92 NSCLC", "no (0)"],
  ["N#Cc1ccc(NC(=O)C(CC(=O)OCc2ccccc2)NC(=O)OCc2ccccc2)cc1 (stereo not given)", "HOP-92 NSCLC", "no (0)"]
]}

# next compound below
q: Given O=c1c(F)cn(Cc2ccccc2CCl)c(=O)n1Cc1ccccc1CCl , state the outcome it received in this test.
a: no (0)

====

# Tested on: A498 renal
# Assay name: NCI tumour cell line growth inhibition, 48 h
Below, each entry is listed with its recorded TGI.
Write down the numeric answer in µM and omit the unit.

Known TGI results, listed for orientation:
{"columns": ["Compound", "Study system", "TGI [µM]"],
 "data": [
  ["c1c2c(cc(-n3nnc4c3CCCCCC4)c1-n1nnc3c1CCCCCC3)CCCCCC2", "A498 renal", 22.2],
  ["Cc1ccc(C2=CC(=O)/C(=C\\C(=O)c3ccc(Cl)cc3)O2)cc1", "A498 renal", 71.8],
  ["COCCOCCOC1=CC(=O)c2c(O)ccc(O)c2C1=O", "A498 renal", 5.08],
  ["Cc1ccc(/C=C2\\Cc3c(C)cc(C)cc3C2=O)c(C(=O)O)c1", "A498 renal", 84.1],
  ["CN(C)c1ccc(-c2ccc(-c3ccc(C(=N)N)cc3)s2)cc1", "A498 renal", 0.0866],
  ["O=c1c2cc(Br)ccc2nc(CCl)n1-c1ccc(O)c([N+](=O)[O-])c1", "A498 renal", 90.2],
  ["Cc1ccc(-c2nc3nc(-c4ccc(F)cc4)nc(N4CCCNCC4)c3o2)cc1", "A498 renal", 3.12],
  ["CCOC(=O)c1nc2cc(C(F)(F)F)ccc2nc1Nc1ccc(C(=O)NC(C(=O)OCC)C(=O)OCC)cc1", "A498 renal", 50.3],
  ["C[C@]12CC[C@@H]3c4cc(I)c(O)cc4CC[C@H]3[C@@H]1CC[C@@H]2O", "A498 renal", 24.3],
  ["COc1ccc(NC(=S)NC(=O)c2ccc3c(c2)Sc2ccccc2O3)c([N+](=O)[O-])c1", "A498 renal", 38.2]
]}

Turning to the following compound.
q: Could you share which TGI value was measured for CCOC(=O)C#Cc1ccccc1 ?
a: 75.3

====

# Tested on: OVCAR-3 ovarian
# Assay name: NCI tumour cell line growth inhibition, 48 h
Below, each entry is listed with its recorded TGI.

Known TGI results, listed for orientation:
{"columns": ["Molecule", "Study system", "TGI"],
 "data": [
  ["Cc1nc(C(N)=S)sc1C(=O)/C=C/c1c(O)ccc2ccccc12", "OVCAR-3 ovarian", "> 84.3 µM"],
  ["O=C(O)[C@@H](Cc1ccc2ccccc2c1)NC(=O)n1c2ccccc2c2ccccc21", "OVCAR-3 ovarian", "6.78 µM"],
  ["N#Cc1c(-c2ccccc2)cc(-c2ccc(Cl)cc2)[nH]c1=S", "OVCAR-3 ovarian", "> 100 µM"]
]}

q: Could you share which TGI value was measured for NC(=O)N/N=C1\CC2C3CC4C2C4C13 (stereo unspecified) ?
a: > 100 µM

q: Input O=c1[nH]c(=O)n(C2CC(O)C(CO)O2)cc1OCc1ccccc1 (stereo unspecified)
a: > 100 µM

q: Input c1c[nH]c(CN2CCOCC2)n1
a: > 100 µM

====

# Test system: NCI/ADR-RES ovarian
# Assay name: NCI tumour cell line growth inhibition, 48 h
Tick yes if TGI is 50 µM or greater. Tick no if TGI is less than 50 µM.

Record excerpt, results attached:
{"columns": ["Compound", "Class name"],
 "data": [
  ["NS(=O)(=O)c1cccc(NC(=S)NC(=O)Nc2ccc(Cl)c(Cl)c2)c1", "no"],
  ["CC1(C)CC2C(=O)c3ccccc3NC2c2ccccc21 (stereo unspecified)", "yes"],
  ["S=c1cc(-c2ccc3c(c2)OCO3)s[nH]1", "yes"],
  ["O=C1CCCCN1CCCCC#Cc1cccc(C#Cc2cccnc2)c1", "yes"]
]}

q: Evaluate COc1nc(C#CC(C)(C)C)nc(OC)n1 : TGI at minimum 50 µM?
a: no

q: Input COc1ccc(OC)c(Cn2cc3c(c2-c2ccccc2)CCc2cnoc2-3)c1
a: no

====

# Tested on: RPMI-8226 leukemia
# Assay name: NCI tumour cell line growth inhibition, 48 h; in the data active = GI50 below about 0.43 µM; inactive = the rest
Answer with one of the outcomes given here: Yes (active), No (inactive)

Record excerpt, results attached:
{"columns": ["Compound", "Class name"],
 "data": [
  ["COc1ccc(OC)c(Cn2cc3c(c2-c2ccccc2)CCc2cnoc2-3)c1", "No"],
  ["O=C(Nc1ccc(Cl)c(Cl)c1)NS(=O)(=O)c1cnccc1Oc1ccc(F)cc1", "No"],
  ["Cc1ccc(NC(=O)c2cc(S(=O)(=O)N3C(=O)NC(=O)NS3(=O)=O)c(S)cc2Cl)cc1", "No"],
  ["COc1ccc(C(=O)c2ccc([As]=O)cc2)cc1 (stereo not given)", "Yes"]
]}

# next compound below
q: Given Cn1cc(C2=C(c3cn(C4CCN(Cc5ccccn5)CC4)c4ccccc34)C(=O)NC2=O)c2ccccc21 , state the outcome it received in this test.
a: No
